Biological target: ABCB1 (Homo sapiens)
Sequence (P08183 whole entry): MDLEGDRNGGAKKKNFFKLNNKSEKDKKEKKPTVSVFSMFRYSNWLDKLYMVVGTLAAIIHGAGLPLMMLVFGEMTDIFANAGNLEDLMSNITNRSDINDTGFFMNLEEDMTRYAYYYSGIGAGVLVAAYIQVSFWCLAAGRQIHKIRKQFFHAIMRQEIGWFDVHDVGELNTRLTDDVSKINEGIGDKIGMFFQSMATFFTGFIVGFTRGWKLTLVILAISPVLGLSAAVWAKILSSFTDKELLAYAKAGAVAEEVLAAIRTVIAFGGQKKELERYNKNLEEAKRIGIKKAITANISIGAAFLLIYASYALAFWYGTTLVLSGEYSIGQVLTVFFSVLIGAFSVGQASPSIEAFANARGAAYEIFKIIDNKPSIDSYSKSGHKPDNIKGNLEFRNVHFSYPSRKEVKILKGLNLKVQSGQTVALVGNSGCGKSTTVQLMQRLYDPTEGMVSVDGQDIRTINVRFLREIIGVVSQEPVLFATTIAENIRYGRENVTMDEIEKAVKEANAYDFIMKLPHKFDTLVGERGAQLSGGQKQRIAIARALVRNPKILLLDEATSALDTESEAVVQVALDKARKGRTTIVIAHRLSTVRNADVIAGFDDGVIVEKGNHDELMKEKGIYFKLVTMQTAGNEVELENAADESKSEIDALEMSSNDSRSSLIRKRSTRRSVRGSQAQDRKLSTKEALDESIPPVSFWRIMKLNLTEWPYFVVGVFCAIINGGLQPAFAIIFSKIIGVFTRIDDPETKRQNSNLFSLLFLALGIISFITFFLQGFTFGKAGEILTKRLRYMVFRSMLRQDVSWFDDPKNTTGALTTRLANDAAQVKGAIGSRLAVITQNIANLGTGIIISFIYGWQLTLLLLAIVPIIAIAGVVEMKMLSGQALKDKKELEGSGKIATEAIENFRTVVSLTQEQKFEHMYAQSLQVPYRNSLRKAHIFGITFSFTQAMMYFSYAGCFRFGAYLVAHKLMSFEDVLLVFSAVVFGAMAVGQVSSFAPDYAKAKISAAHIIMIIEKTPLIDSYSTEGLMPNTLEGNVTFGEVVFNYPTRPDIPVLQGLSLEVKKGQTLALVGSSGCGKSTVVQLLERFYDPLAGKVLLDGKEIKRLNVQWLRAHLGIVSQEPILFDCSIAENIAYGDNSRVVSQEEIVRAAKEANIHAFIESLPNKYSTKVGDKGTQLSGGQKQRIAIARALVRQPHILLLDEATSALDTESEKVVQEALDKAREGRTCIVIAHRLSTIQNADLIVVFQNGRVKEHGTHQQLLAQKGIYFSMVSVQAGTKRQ
Experiment: biochemical

| SMI | UNITS_SYMBOL | EC50 |
| --- | --- | --- |
| COc1cc2c(cc1OC(C)C)[C@H](c1ccc(Cl)cc1)N(c1ccc(N(C)C[C@H]3CC[C@H](N4CCN(C)C(=O)C4)CC3)cc1)C(=O)C2 | µM | 0.45 |
